target: 5-hydroxytryptamine receptor 1A (Rattus norvegicus, UniProt P19327)
Sequence (P19327 whole entry): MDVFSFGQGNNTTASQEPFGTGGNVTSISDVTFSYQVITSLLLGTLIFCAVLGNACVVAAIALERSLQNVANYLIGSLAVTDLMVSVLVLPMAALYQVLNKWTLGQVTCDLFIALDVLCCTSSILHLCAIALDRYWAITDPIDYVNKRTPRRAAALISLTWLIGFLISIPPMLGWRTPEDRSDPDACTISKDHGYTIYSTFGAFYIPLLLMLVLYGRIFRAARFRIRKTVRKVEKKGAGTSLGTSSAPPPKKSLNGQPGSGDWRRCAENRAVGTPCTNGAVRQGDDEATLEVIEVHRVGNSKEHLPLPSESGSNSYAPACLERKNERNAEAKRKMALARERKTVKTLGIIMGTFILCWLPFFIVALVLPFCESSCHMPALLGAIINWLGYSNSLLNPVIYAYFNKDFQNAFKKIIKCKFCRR
Readout Label: pKi
Lab note: report pKi as minus log10 of the concentration in molar units, number only.

[Q] Returns the measured pKi for the input compound. Input: O=c1c(CO)coc2cc(OCCCN3CCC(c4noc5cc(F)ccc45)CC3)ccc12
[A] 7.03

---

system: Rattus norvegicus; assay: In vivo antipsychotic activity measured by the induction of catalepsy in rats after po administration.; type: functional
Readout Label: ED50

Consider the worked cases shown below.
CN1CCN(C2=Nc3cc(Cl)ccc3Nc3ccccc32)CC1	> 100 mg/kg
O=C(O)c1coc2cc(OCCCN3CCC(c4noc5cc(F)ccc45)CC3)ccc2c1=O	> 50 mg/kg

Let us examine a further case.
[Q] Returns the measured ED50 for the input molecule. Input: O=c1cc(CO)oc2cc(OCCCN3CCC(c4noc5cc(F)ccc45)CC3)ccc12
[A] > 100 mg/kg
